- System: H4
- test-summary: Luminescence Cell-Based Dose Response HTS to Identify Activators of 5'UTR Stem-Loop Driven Prion Protein mRNA Translation in H4 Neuroglioblastoma Cells. [Related pubchem assays: 1829 (Project Summary), 1814 (Primary HTS)]
- Assay type: functional
- measurement-conditions: Homo sapiens
Activity calls are given as the source filed them.
Kindly supply the reported EC50 values for the records listed here.

Form: molecule = Cc1ccc(C2=NNC3(CCOC(C)(C)C3)S2)cc1 (stereo not drawn) ; EC50 = 19.1 µM (active)

Form: molecule = COc1ccc(-c2nnn(Cc3ccccc3F)n2)cc1 ; EC50 = 44.6 µM (inconclusive)

Form: molecule = COc1ccc([N+]2=C3CCc4ccccc4N3CC2(C)O)cc1 (stereo not drawn) ; EC50 = > 120 µM (not active)

Form: molecule = CSc1nc(-c2ccc(Cl)cc2)c[nH]1 ; EC50 = < 0.1 µM (active)

Form: molecule = CC/N=c1\scc(C)n1/N=C/c1ccsc1 ; EC50 = 11.1 µM (active)

Form: molecule = COC(=O)c1cn(C(=O)c2ccc(OC)cc2)c2ccccc12 ; EC50 = > 120 µM (not active)

Form: molecule = COc1ccc(C2CC(c3ccccc3OC(=O)/C=C/c3ccccc3)=NN2C(C)=O)cc1 (stereo not drawn) ; EC50 = 36.4 µM (active)

Form: molecule = Cc1ccc2nc(SCC(=O)c3ccccc3)nc(=O)n2c1 ; EC50 = 24 µM (active)

====

- test-summary: Luminescence Cell-Based Dose Confirmation HTS to Identify Activators of 5'UTR Stem-Loop Driven Alpha-Synuclein mRNA Translation in H4 Neuroglioblastoma Cells. [Related pubchem assays: 1829 (Project Summary), 1814 (Primary HTS)]
- Type: functional
Calls of active or inactive are those of the source.
assay-readout: EC50

Form: molecule = Cc1ccc2nc(SCC(=O)c3ccccc3)nc(=O)n2c1 ; EC50 = 33.8 µM (active)

Form: molecule = CC(C)(C)c1ccc(C(=O)NCC(=O)OCC(=O)Nc2nc(-c3ccc(F)cc3)cs2)cc1 ; EC50 = 19.9 µM (active)

Form: molecule = Cc1ccc(C2=NNC3(CCOC(C)(C)C3)S2)cc1 (stereo unspecified) ; EC50 = 14 µM (active)

Form: molecule = CC1=NN(c2ccc(C(=O)O)cc2)C(=O)/C1=C/c1ccc(-c2ccccc2F)o1 ; EC50 = > 120 µM (not active)

Form: molecule = COc1ccc([N+]2=C3CCc4ccccc4N3CC2(C)O)cc1 (stereo unspecified) ; EC50 = > 120 µM (not active)

Form: molecule = CCOC(=O)COc1cccc2c(=O)n(CC(=O)NCCc3ccccc3)ccc12 ; EC50 = > 120 µM (not active)

====

Kindly supply the reported AC50 values for the records listed here.
- target: Cytochrome P450 2D6 (Homo sapiens);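 also: CYP2D6 member of a cytochrome P450 panel assay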
- Sequence (P10635 whole entry): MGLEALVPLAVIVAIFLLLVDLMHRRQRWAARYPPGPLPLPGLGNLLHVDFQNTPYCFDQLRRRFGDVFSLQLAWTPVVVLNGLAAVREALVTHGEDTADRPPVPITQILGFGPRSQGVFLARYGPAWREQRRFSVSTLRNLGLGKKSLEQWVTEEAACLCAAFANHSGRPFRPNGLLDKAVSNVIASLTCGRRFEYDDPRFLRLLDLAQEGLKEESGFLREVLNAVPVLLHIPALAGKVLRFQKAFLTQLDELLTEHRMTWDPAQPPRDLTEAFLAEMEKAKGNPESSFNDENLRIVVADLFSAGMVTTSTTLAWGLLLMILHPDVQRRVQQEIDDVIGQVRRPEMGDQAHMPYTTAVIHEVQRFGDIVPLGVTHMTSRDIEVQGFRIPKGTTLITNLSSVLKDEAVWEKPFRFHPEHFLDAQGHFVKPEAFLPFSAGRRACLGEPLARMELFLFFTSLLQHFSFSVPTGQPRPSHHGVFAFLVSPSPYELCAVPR

Form: compound = CCCC/C=C/C(NC(=O)C(C)(C)C)c1ccccc1 (stereo unspecified) ; AC50 = 20 µM (inconclusive)

Form: compound = COc1ccc(C=O)cc1COc1ccc(C)cc1[N+](=O)[O-] ; AC50 = 14.1 µM (inconclusive)

Form: compound = O=c1c(-c2ccc(F)cc2)nc2cnc(N3CCNCC3)nc2n1Cc1ccc(F)cc1 ; AC50 = 20 µM (inconclusive)

Form: compound = COc1ccc(C(=O)Nc2ccc(S(=O)(=O)N3CCOCC3)cc2)cc1OC ; AC50 = 0.00794 µM (inconclusive)

Form: compound = O=C1C2C3C=CC(C3)C2C(=O)N1/N=C/c1cn(Cc2ccccc2)c2ccccc12 (stereo unspecified) ; AC50 = 39.8 µM (inconclusive)

Form: compound = O=c1oc(Cl)c(Cl)c2ccccc12 ; AC50 = 31.6 µM (inconclusive)

====

- target: Aminopeptidase N (Plasmodium falciparum FcB1/Columbia)
- Sequence (O96935 whole entry): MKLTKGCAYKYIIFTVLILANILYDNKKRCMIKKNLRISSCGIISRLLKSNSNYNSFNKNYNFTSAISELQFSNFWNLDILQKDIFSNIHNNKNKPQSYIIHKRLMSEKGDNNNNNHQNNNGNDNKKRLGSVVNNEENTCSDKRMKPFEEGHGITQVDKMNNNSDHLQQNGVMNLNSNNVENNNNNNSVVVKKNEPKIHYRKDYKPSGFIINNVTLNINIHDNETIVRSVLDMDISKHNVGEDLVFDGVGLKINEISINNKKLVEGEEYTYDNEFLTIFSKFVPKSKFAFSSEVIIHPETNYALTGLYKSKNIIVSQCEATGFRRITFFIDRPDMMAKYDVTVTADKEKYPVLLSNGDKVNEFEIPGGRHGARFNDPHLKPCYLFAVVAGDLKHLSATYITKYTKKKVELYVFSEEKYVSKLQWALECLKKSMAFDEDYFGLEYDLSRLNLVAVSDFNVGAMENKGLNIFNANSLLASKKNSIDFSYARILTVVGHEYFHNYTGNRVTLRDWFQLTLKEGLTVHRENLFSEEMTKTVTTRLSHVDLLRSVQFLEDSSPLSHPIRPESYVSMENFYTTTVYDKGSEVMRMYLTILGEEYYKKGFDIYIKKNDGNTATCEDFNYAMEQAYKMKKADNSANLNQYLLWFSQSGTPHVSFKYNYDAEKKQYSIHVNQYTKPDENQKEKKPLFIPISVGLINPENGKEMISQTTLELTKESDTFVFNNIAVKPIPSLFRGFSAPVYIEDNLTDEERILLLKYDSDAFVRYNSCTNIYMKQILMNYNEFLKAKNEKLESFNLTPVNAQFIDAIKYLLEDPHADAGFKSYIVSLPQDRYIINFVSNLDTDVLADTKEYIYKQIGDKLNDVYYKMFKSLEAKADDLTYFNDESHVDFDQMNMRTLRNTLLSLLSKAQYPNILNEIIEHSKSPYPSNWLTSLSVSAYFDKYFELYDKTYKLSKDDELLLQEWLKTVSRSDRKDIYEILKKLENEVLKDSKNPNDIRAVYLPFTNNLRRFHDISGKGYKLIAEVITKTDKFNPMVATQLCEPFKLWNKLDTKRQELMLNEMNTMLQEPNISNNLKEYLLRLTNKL
- test-summary: P. falciparum M1AAP inhibitors, biochemical, fluorogenic H-Leu-NHMec substrate, 1536-well (AID 1445)
- Design: species or system Plasmodium falciparum 3D7, 3D7
The source made the active and inactive calls.
Kindly supply the reported IC50 values for the records listed here.

Sample Cc1ccccc1C1C2=C(O)c3ccccc3C2=Nc2nn(-c3ccccc3)c(O)c21 (configuration not stated) , system: Aminopeptidase N (Plasmodium falciparum FcB1/Columbia). Its IC50 is 40.4 µM (active)

Sample O=C(N/N=C/c1cccnc1)c1cc(-c2ccccc2OCc2ccccc2)[nH]n1 , system: Aminopeptidase N (Plasmodium falciparum FcB1/Columbia). Its IC50 is 31.2 µM (active)

Sample O=C(COc1ccccc1/C=C\c1nc(O)c([N+](=O)[O-])c(O)n1)Nc1ccccc1 , system: Aminopeptidase N (Plasmodium falciparum FcB1/Columbia). Its IC50 is 49 µM (active)

Sample O=c1cc(-c2ccc(O)c(O)c2)oc2cc(O)cc(O)c12 [LUTEOLIN] , system: Aminopeptidase N (Plasmodium falciparum FcB1/Columbia). Its IC50 is 22.9 µM (active)

Sample CCCc1nc2sc3c(c2c(=O)n1NC(=O)c1ccco1)CC(C)(C)OC3 , system: Aminopeptidase N (Plasmodium falciparum FcB1/Columbia). Its IC50 is 36.1 µM (active)

Sample O=C(O)c1cccc(-c2ccc(/C=N/Nc3ccc([N+](=O)[O-])cc3)o2)c1 , system: Aminopeptidase N (Plasmodium falciparum FcB1/Columbia). Its IC50 is 27.3 µM (active)

Sample NS(=O)(=O)c1ccc(N2N=C(c3ccccc3)CC2c2ccc(F)cc2)cc1 (configuration not stated) , system: Aminopeptidase N (Plasmodium falciparum FcB1/Columbia). Its IC50 is 62 µM (active)

====

- target: Heat shock factor protein 1 (Mus musculus)
- Sequence (P38532 whole entry): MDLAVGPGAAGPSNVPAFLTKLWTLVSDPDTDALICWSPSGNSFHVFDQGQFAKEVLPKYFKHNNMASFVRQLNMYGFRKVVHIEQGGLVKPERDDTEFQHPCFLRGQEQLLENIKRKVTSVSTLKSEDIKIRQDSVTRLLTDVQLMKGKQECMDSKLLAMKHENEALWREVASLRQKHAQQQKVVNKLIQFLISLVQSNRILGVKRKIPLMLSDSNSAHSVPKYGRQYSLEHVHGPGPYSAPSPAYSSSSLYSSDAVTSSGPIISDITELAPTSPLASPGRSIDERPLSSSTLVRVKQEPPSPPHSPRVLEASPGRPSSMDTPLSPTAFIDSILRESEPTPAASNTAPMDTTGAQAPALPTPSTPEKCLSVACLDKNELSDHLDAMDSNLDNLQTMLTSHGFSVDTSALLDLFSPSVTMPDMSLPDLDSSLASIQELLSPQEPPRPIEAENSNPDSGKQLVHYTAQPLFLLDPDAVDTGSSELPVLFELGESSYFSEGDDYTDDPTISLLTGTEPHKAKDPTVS
- test-summary: inhibition of MG132-induced HSE-luciferase signal, confirmation, cell-based, NIH3T3, luminescence, dose retest (AID 2382);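 also: NIH3T3 fibroblasts with HSF1-driven luciferase reporter stressed by proteasome inhibitor MG132; luminescence from HSF1-driven luciferase expression after 8 hours of MG132 stress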
- Format: functional
Activity calls are given as the source filed them.
assay-readout: EC50

Form: compound = CN(CC(=O)Nc1ccc(F)cc1)C(=O)COC(=O)c1cc(S(=O)(=O)N(C)C)ccc1N1CCCC1 ; EC50 = > 195 µM (not active)

Form: compound = COc1cccc(-c2nc3cc(N4CCN(C)CC4)ccc3[nH]2)c1 ; EC50 = < 0.16 µM (active)

Form: compound = CNC(=O)c1ccsc1NC(=O)c1ccc(Cl)s1 ; EC50 = > 195 µM (not active)

Form: compound = COc1ccc(/C(C)=N/NC(=O)CNC(=O)/C=C\c2ccccc2)c(OC)c1 ; EC50 = > 195 µM (not active)

Form: compound = O=C(c1cc(Br)c[nH]1)N1CCSCC1 ; EC50 = > 195 µM (not active)

Form: compound = Cc1cc(C)c2c(n1)sc1c(O)nc(SCc3ccccc3)nc12 ; EC50 = > 195 µM (not active)

Form: compound = O=C(O)CCSc1nc2ccccc2s1 ; EC50 = 6.83 µM (active)

Form: compound = O=C(OC(C(=O)NC1CCCC1)c1ccncc1)C1=Cc2ccccc2OC1 (stereo unspecified) ; EC50 = > 195 µM (not active)

Form: compound = CCCn1c(N2CCN(CC(=O)NCc3cccs3)CC2)nc2ccccc21 ; EC50 = > 195 µM (not active)

Form: compound = CCCCOc1ccc(/N=C/c2ccc[nH]2)cc1 ; EC50 = 33 µM (active)

Form: compound = Cc1cc(=O)n2nc(-c3ccc(C(F)(F)F)cc3)sc2n1 ; EC50 = > 195 µM (not active)

====

- test-summary: growth suppression of PTEN-null colon cells, dose response, cell-based, HCT116 PTEN knockout (AID 1047);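 also: HCT116 colon tumor cells with PTEN knocked out; cells exposed to compound for 60 hours before readout; potency for loss of cell viability measured by luminescence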
- Format: functional
Calls of active or inactive are those of the source.
Kindly supply the reported EC50 values for the records listed here.

Form: molecule = O=C(CCl)N(c1ccccc1)c1c[nH]c2ccccc12 ; EC50 = 3.78 µM (active)

Form: molecule = O=c1ccsn1Cc1ccccc1 ; EC50 = 13 µM (active)

Form: molecule = CCOC(=O)C1=C(N)Oc2c(c(O)nc3ccccc23)C1c1ccccc1 (stereo not given) ; EC50 = 53.5 µM (active)

Form: molecule = Cc1cc(SC#N)cc(C)c1NC(=O)CCl ; EC50 = 19.8 µM (active)

Form: molecule = C=C1C(=O)[C@@]23[C@H](O)C[C@@H]4C(C)(C)CC[C@H](O)[C@@]4(C)[C@@H]2CC[C@@H]1[C@H]3O ; EC50 = 1.17 µM (active)

====

Kindly supply the reported EC50 values for the records listed here.
- target: Luciferin 4-monooxygenase (Photinus pyralis, UniProt P08659)
- Sequence (P08659 whole entry): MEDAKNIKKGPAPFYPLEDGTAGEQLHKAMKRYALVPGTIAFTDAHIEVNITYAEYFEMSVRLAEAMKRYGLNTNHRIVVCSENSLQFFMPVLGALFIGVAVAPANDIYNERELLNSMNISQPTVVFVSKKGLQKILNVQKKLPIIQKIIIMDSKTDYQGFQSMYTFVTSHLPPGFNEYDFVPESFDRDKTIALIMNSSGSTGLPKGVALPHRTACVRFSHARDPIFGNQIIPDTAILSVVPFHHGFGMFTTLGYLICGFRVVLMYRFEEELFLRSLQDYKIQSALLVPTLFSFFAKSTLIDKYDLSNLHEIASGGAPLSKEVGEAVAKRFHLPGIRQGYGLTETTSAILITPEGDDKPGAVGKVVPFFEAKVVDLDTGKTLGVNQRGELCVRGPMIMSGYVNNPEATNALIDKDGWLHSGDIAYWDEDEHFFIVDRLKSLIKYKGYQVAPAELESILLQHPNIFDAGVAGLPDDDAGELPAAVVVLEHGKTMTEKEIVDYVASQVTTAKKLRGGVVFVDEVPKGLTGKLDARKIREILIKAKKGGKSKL
- test-summary: firefly luciferase enzyme inhibitors, dose response, biochemical, luminescence (AID 1891)
Activity calls are given as the source filed them.

Form: compound = O=C(CCNC(=O)C1CCN(S(=O)(=O)c2ccccc2)CC1)NCc1ccc(Cl)c(Cl)c1 ; EC50 = > 112 µM (not active)

Form: compound = Cc1cc(C)n(Cc2cccc(F)c2)c(=O)c1C#N ; EC50 = > 112 µM (not active)

Form: compound = C=CCn1c(SCC(=O)Nc2sc3c(c2C#N)CCC3)nnc1C1COc2ccccc2O1 (stereo unspecified) ; EC50 = 39.7 µM (active)

Form: compound = COc1ccc(NC(=O)/C(Cl)=C(/Cl)[S+]([O-])Cc2ccc(C)cc2)cn1 (stereo unspecified) ; EC50 = > 112 µM (not active)

Form: compound = COc1cc(OC)c2cc[nH]c2c1 ; EC50 = > 112 µM (not active)

Form: compound = N#Cc1ccc(/C=N/NC(=O)CCc2ccc(S(=O)(=O)N3CCOCC3)cc2)cc1 ; EC50 = > 112 µM (not active)

Form: compound = O=C(O)C1C2C=CC(C2)C1C(=O)NCc1ccccn1 (stereo unspecified) ; EC50 = > 112 µM (not active)

Form: compound = COc1cccc2oc3cc(C#Cc4ccccn4)ccc3c(=O)c12 ; EC50 = 23.1 µM (active)

Form: compound = COc1ccc(N(C(=O)c2ccc(Cl)cc2)C2=CC3CCC(C2)N3C)cc1 (stereo unspecified) ; EC50 = > 112 µM (not active)

Form: compound = Cn1c(=O)oc2cc(S(=O)(=O)NC3CCN(Cc4ccccc4)CC3)ccc21 ; EC50 = > 112 µM (not active)

Form: compound = COc1cccc(C(=O)ON=C(N)c2ccccn2)c1 ; EC50 = 2.07 µM (active)
